- target-or-test-system: chemokine receptor CCR3 (Homo sapiens, UniProt P51677)
- Sequence (P51677 1-355): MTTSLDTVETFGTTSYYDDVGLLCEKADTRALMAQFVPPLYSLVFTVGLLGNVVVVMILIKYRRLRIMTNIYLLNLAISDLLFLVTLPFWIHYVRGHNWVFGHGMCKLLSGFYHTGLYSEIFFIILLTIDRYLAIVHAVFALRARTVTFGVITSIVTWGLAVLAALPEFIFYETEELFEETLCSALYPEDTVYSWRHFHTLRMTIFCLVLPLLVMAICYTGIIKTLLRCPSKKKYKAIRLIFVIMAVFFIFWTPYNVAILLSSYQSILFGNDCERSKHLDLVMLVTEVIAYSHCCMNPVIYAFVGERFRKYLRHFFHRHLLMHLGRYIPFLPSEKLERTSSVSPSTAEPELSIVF
pIC50: −log10 of the molar value.
measured-endpoint: pIC50

O=C(NC1CCN(CC2=CCCCCCCC2)CC1)C1c2ccccc2Oc2ccccc21 [Example 61 (named cis for convenience)] :: 8.77

A. CC[N+]1(CC2CCCCCCC2)CCC(NC(=O)C2c3cc(Br)ccc3Oc3ccc(Br)cc32)CC1 (single isomer, unassigned) [Example 26 (named cis for convenience)]
B. CC[N+]1(CC2=CCCCCCC2)CCC(NC(=O)C2c3cc(Cl)ccc3Oc3ccc(Cl)cc32)CC1 (stereo not drawn) [Example 62 (named cis for convenience)]
C. CC[N+]1(CC2CCCCCCC2)CCC(NC(=O)C2c3ccccc3Oc3ccccc32)CC1.[I-] (stereo not shown)
Please list these compounds in decreasing order of pIC50. State the ranking by listing the labels in the requested order. B, A, C
(B: 9.13, A: 8.57, C: 7.40)

Data credit: patent US6140338A
